# Test system: CCRIS mutagenicity, Ames/micronucleus/aberration tests
# experiment: CCRIS mutagenicity studies
# particulars: Test System: AMES SALMONELLA TYPHIMURIUM; Strain/Indicator: TA100; Metabolic Activation: S-9; Method: PREINCUBATION
Active and inactive are the calls of the source. How the calls were made is not given here.
One label from this list, please: yes for active, no for inactive

Some entries whose results are on file:
Field: outcome | Entry: COc1cccc2c1C(=O)c1c(O)c3c(c(O)c1C2=O)C[C@@](O)(C(=O)CO)C[C@@H]3O[C@H]1C[C@H](N)[C@H](O)[C@H](C)O1
yes

Field: outcome | Entry: O=NN1CCOCC1
yes

Field: outcome | Entry: C=CC(=C)C
no

Attention now shifts to the item below.
Field: outcome | Entry: CC1CC(C)C(=O)C1=O (centres undefined)
no

* * *

# System: CCRIS mutagenicity, Ames/micronucleus/aberration tests
# experiment: CCRIS mutagenicity studies
# particulars: Test System: AMES SALMONELLA TYPHIMURIUM; Strain/Indicator: TA1535; Metabolic Activation: NONE; Method: PREINCUBATION
Active and inactive are the calls of the source. No rule for the calls is given here.
measureName: mutagenic call

# example entries with known answers
Name the recorded mutagenic call for NC(=O)NNC(N)=O .
inactive; negative

Name the recorded mutagenic call for CC(=O)Nc1ccc(O)cc1 .
inactive; negative

Name the recorded mutagenic call for Cl .
inactive; negative

Name the recorded mutagenic call for O=[N+]([O-])c1cc(Cl)c(Cl)c(Cl)c1Cl .
inactive; negative

Name the recorded mutagenic call for CC(=O)O[C@]1(C(C)=O)CC[C@H]2[C@@H]3C[C@H](C)C4=CC(=O)CC[C@]4(C)[C@H]3CC[C@@]21C .
inactive; negative

Would you mind giving mutagenic call for every molecule in the list below?
1. Nc1ccccc1S
2. Cc1ccc(CO)cc1
3. CC(O)c1ccccc1 (stereo not drawn)

1: inactive; negative; 2: inactive; negative; 3: inactive; negative

* * *

# System: CCRIS mutagenicity, Ames/micronucleus/aberration tests
# experiment: CCRIS mutagenicity studies
# particulars: Test System: AMES SALMONELLA TYPHIMURIUM; Strain/Indicator: TA100; Metabolic Activation: NONE; Method: PREINCUBATION
The source made the active and inactive calls. How the calls were made is not given here.
One label from this list, please: active, inactive

Some entries whose results are on file:
Field: outcome | Entry: O=[N+]([O-])c1ccc2c(c1)Oc1ccccc1O2
inactive

Field: outcome | Entry: C[n+]1ccc(-c2ccccc2)cc1
inactive

Field: outcome | Entry: Cc1c(N)cccc1N=[N+]([O-])c1cccc(N)c1C
inactive

More entries:
Field: outcome | Entry: COc1ccc([N+](=O)[O-])cc1N=Nc1c(O)c(C(=O)Nc2cccc([N+](=O)[O-])c2)cc2ccccc12
active

Field: outcome | Entry: CCCCOC(=O)c1ccccc1C(=O)OCc1ccccc1
inactive

Field: outcome | Entry: Nc1cccc(N)n1
inactive

Field: outcome | Entry: CC/C(C)=N\O
inactive

Field: outcome | Entry: N[C@@H](CCC(=O)N[C@@H](CSc1ccc([N+](=O)[O-])cc1[N+](=O)[O-])C(=O)NCC(=O)O)C(=O)O
inactive

Field: outcome | Entry: CC/C(=C(/CC)c1ccc(O)cc1)c1ccc(O)cc1
inactive

Field: outcome | Entry: O=Cc1ccc([N+](=O)[O-])cc1[N+](=O)[O-]
active

Field: outcome | Entry: Sc1ccccc1
inactive

Field: outcome | Entry: Cc1ccc(S(=O)(=O)NC(=O)NN2CCCCCC2)cc1
inactive

Field: outcome | Entry: CC#N
inactive

* * *

# System: CCRIS mutagenicity, Ames/micronucleus/aberration tests
# experiment: CCRIS mutagenicity studies
# particulars: Test System: AMES SALMONELLA TYPHIMURIUM; Strain/Indicator: TA100; Metabolic Activation: RAT, LIVER, S-9, AROCLOR 1254 (30%); Method: PREINCUBATION
Active and inactive are the calls of the source. No rule for the calls is given here.
One label from this list, please: active, inactive

Some entries whose results are on file:
Field: outcome | Entry: Cc1ccc(CO)cc1
inactive

Field: outcome | Entry: CCN(CC)c1ccc(N)cc1
inactive

Field: outcome | Entry: O=C1Nc2ccc(Cl)cc2C(c2ccccc2)=NC1O (stereo unspecified)
inactive

Field: outcome | Entry: O=NN1CCOCC1
active

Field: outcome | Entry: CC(C)C(C)C
inactive

Attention now shifts to the item below.
Field: outcome | Entry: CCCCC(CC)COCCC#N (stereo unspecified)
inactive

* * *

# Test system: CCRIS mutagenicity, Ames/micronucleus/aberration tests
# experiment: CCRIS mutagenicity studies
# particulars: Test System: AMES SALMONELLA TYPHIMURIUM; Strain/Indicator: TA98; Metabolic Activation: RAT, LIVER, S-9, PHENOBARBITAL AND BETA-NAPHTHOFLAVONE; Method: PREINCUBATION
Active and inactive are the calls of the source. No rule for the calls is given here.
One label from this list, please: active, inactive

Field: outcome | Entry: NCc1ccc(CN)cc1
inactive

Field: outcome | Entry: N#Cc1cc([N+](=O)[O-])ccc1N
active

Field: outcome | Entry: COC(=O)Nc1nc2ccccc2[nH]1
active

Field: outcome | Entry: O=C1c2ccccc2-c2c3c(cc4ccnc1c24)OCO3
active

Field: outcome | Entry: O=[N+]([O-])c1ccc(O)c([N+](=O)[O-])c1
inactive

Attention now shifts to the item below.
Field: outcome | Entry: Nc1cccc(N)n1
inactive

* * *

# System: CCRIS mutagenicity, Ames/micronucleus/aberration tests
# experiment: CCRIS mutagenicity studies
# particulars: Test System: AMES SALMONELLA TYPHIMURIUM; Strain/Indicator: TA98(NR); Metabolic Activation: NONE; Method: STANDARD PLATE
Active and inactive are the calls of the source. No rule for the calls is given here.
One label from this list, please: 1.0 = active, 0.0 = inactive

Some entries whose results are on file:
Field: outcome | Entry: O=C/C=C/c1ccc([N+](=O)[O-])o1
1.0

Field: outcome | Entry: CC(=O)N(O)c1ccc2ccc3cccc4ccc1c2c34
1.0

Field: outcome | Entry: N#Cc1cccc(/C=C/c2ccc([N+](=O)[O-])cc2)c1
1.0

Field: outcome | Entry: CC(=O)N(O)c1ccc([N+](=O)[O-])cc1
0.0

Attention now shifts to the item below.
Field: outcome | Entry: COC(=O)c1oc([N+](=O)[O-])c(-c2ccccc2)c1-c1ccccc1
0.0

* * *

# Test system: CCRIS mutagenicity, Ames/micronucleus/aberration tests
# experiment: CCRIS mutagenicity studies
# particulars: Test System: AMES SALMONELLA TYPHIMURIUM; Strain/Indicator: TA1538; Metabolic Activation: HAMSTER, LIVER, S-9, AROCLOR 1254; Method: STANDARD PLATE
Calls of active or inactive are those of the source. How the calls were made is not given here.
One label from this list, please: 1 for active, -1 for inactive

Field: outcome | Entry: COc1ccc2nc(N)sc2c1
1

Field: outcome | Entry: O=C(O)CN(CC(=O)O)CC(=O)O
-1

Attention now shifts to the item below.
Field: outcome | Entry: CC(=O)CC(=O)CCC(=O)O
-1

* * *

# System: CCRIS mutagenicity, Ames/micronucleus/aberration tests
# experiment: CCRIS mutagenicity studies
# particulars: Test System: AMES SALMONELLA TYPHIMURIUM; Strain/Indicator: TA1535; Metabolic Activation: RAT, LIVER, S-9, AROCLOR 1254; Method: STANDARD PLATE
Active and inactive are the calls of the source. How the calls were made is not given here.
measureName: mutagenic call

Name the recorded mutagenic call for CC=O .
inactive; negative

Name the recorded mutagenic call for N=C1C=CC(=C(c2ccc(N)cc2)c2ccc(N)cc2)C=C1 .
inactive; negative

Name the recorded mutagenic call for CC(CN1CC(=O)NC(=O)C1)N1CC(=O)NC(=O)C1 (stereo not drawn) .
inactive; negative

* * *

# System: CCRIS mutagenicity, Ames/micronucleus/aberration tests
# experiment: CCRIS mutagenicity studies
# particulars: Test System: AMES SALMONELLA TYPHIMURIUM; Strain/Indicator: TA1535; Metabolic Activation: HAMSTER, LIVER, S-9, AROCLOR 1254 (10%); Method: PREINCUBATION
The source made the active and inactive calls. How the calls were made is not given here.
One label from this list, please: Yes = active, No = inactive

Field: outcome | Entry: [N-]=[N+]=[N-]
Yes

Field: outcome | Entry: Cc1ccccc1N=Nc1ccc(N(C)C)cc1
No

Field: outcome | Entry: COCC1CO1 (stereo not given)
Yes

Field: outcome | Entry: Cl/C=C/C[N+]12CN3CN(CN(C3)C1)C2
No

Field: outcome | Entry: CNCCO
No

* * *

# System: CCRIS mutagenicity, Ames/micronucleus/aberration tests
# experiment: CCRIS mutagenicity studies
# particulars: Test System: AMES SALMONELLA TYPHIMURIUM; Strain/Indicator: TA100; Metabolic Activation: HAMSTER, LIVER, S-9, AROCLOR 1254 (30%); Method: PREINCUBATION
Activity calls are given as the source filed them. The rule behind the calls is not given here.
One label from this list, please: 1 for active, -1 for inactive

Some entries whose results are on file:
Field: outcome | Entry: O=C(Nc1ccccc1)c1cc2ccccc2c(N=Nc2cc(Cl)ccc2Cl)c1O
-1

Field: outcome | Entry: Cl/C=C\Cl
-1

Field: outcome | Entry: O=[N+]([O-])c1cc([N+](=O)[O-])c2ccccc2c1
1

Field: outcome | Entry: Cc1ccc(CO)cc1
-1

More entries:
Field: outcome | Entry: CCCCC(CC)CN (centres undefined)
-1

Field: outcome | Entry: COc1cc(Cl)c(OC)cc1Cl
1

Field: outcome | Entry: CCCCCCCCOc1ccc(C(=O)O)cc1
-1

Field: outcome | Entry: NC(N)=NC(=O)c1nc(Cl)c(N)nc1N
-1
